- tested system: Glucagon receptor (Homo sapiens)
- Sequence (P47871 whole entry): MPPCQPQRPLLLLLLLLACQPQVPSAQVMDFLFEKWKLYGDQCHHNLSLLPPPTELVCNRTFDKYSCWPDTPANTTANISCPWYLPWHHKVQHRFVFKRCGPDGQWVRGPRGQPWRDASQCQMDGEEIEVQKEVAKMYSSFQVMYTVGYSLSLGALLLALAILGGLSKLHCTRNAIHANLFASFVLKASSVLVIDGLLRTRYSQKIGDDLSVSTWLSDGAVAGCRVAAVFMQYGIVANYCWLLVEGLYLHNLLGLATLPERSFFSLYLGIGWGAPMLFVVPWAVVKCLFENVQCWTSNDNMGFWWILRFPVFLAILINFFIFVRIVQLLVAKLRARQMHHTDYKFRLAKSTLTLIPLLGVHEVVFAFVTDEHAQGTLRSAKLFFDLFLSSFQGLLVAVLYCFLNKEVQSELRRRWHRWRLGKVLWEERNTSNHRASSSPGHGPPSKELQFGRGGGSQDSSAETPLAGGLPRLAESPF
- test: Inhibition of human cloned glucagon receptor expressed in BHK cells
pIC50: −log10 of the molar value.
property measured: pIC50

Here's what some known entries look like.
INSERT INTO measurements (compound, tested_system, property_measured, result) VALUES
  ('CNC(=O)C1CCC(N(Cc2ccc(C(=O)NCCC(=O)O)cc2)C(=O)Nc2ccc(OC(F)(F)F)cc2)CC1 (centres undefined)', 'Glucagon receptor (Homo sapiens)', 'pIC50', '< 5.00'),
  ('COCCCNC(=O)c1ccc(CN(C(=O)Nc2ccc(OC(F)(F)F)cc2)C2CCC(C(C)(C)C)CC2)cc1 (centres undefined)', 'Glucagon receptor (Homo sapiens)', 'pIC50', '< 5.00'),
  ('O=C(O)CCNC(=O)c1ccc(CN(CC(c2ccccc2)c2ccccc2)C(=O)c2csc3ccc(Cl)cc23)cc1', 'Glucagon receptor (Homo sapiens)', 'pIC50', 6.94);

Exercise: For the compound CC(C)(C)C1CCC(N(Cc2ccc(C(=O)NCCC(N)=O)cc2)C(=O)Nc2ccc(OC(F)(F)F)cc2)CC1 (centres undefined) , give its reported pIC50.
Solution: < 5.00
